Values from paper PMC10364322

- Tested on: hiPSC-CMs (iCell-Cardiomyocytes^2)
- measurement protocol: MEA impedance (cytotoxicity readout) in hiPSC-CMs
- applied conditions: 10 µM; 2h
value kind: Imp (impedance), % change from baseline (%)

[
  {
    "molecule": "CC(=O)Oc1ccccc1C(=O)O",
    "value kind": "Imp (impedance), % change from baseline",
    "units text": "%",
    "observed measurement": 6
  },
  {
    "molecule": "C[C@H](CS)C(=O)N1CCC[C@H]1C(=O)O",
    "value kind": "Imp (impedance), % change from baseline",
    "units text": "%",
    "observed measurement": 9
  },
  {
    "molecule": "COc1nc(N)nc2c1ncn2[C@@H]1O[C@H](COP(=O)(N[C@@H](C)C(=O)OCC(C)(C)C)Oc2cccc3ccccc23)[C@@H](O)[C@@]1(C)O (stereo partly drawn)",
    "value kind": "Imp (impedance), % change from baseline",
    "units text": "%",
    "observed measurement": 2
  },
  {
    "molecule": "CC(C)(Sc1cc(C(C)(C)C)c(O)c(C(C)(C)C)c1)Sc1cc(C(C)(C)C)c(O)c(C(C)(C)C)c1",
    "value kind": "Imp (impedance), % change from baseline",
    "units text": "%",
    "observed measurement": -3
  },
  {
    "molecule": "C#Cc1cccc(Nc2ncnc3cc(OCCOC)c(OCCOC)cc23)c1",
    "value kind": "Imp (impedance), % change from baseline",
    "units text": "%",
    "observed measurement": 5
  },
  {
    "molecule": "CC1(C)S[C@@H]2[C@H](NC(=O)[C@H](N)c3ccc(O)cc3)C(=O)N2[C@H]1C(=O)O",
    "value kind": "Imp (impedance), % change from baseline",
    "units text": "%",
    "observed measurement": 2
  }
]

----------
- System: hiPSC-CMs (iCell-Cardiomyocytes^2)
- applied conditions: 10 µM; 48h
FPD (field-potential duration), % change from baseline reference
value kind: FPD (field-potential duration), % change from baseline (%)

[
  {
    "molecule": "COc1nc(N)nc2c1ncn2[C@@H]1O[C@H](COP(=O)(N[C@@H](C)C(=O)OCC(C)(C)C)Oc2cccc3ccccc23)[C@@H](O)[C@@]1(C)O (stereo partly drawn)",
    "observed measurement": -10.6
  },
  {
    "molecule": "CC(C)(Sc1cc(C(C)(C)C)c(O)c(C(C)(C)C)c1)Sc1cc(C(C)(C)C)c(O)c(C(C)(C)C)c1",
    "observed measurement": -0.8
  },
  {
    "molecule": "CC1(C)S[C@@H]2[C@H](NC(=O)[C@H](N)c3ccc(O)cc3)C(=O)N2[C@H]1C(=O)O",
    "observed measurement": 6.6
  }
]

----------
- Tested on: hiPSC-CMs (iCell-Cardiomyocytes^2)
- applied conditions: 3 µM; 2h
value kind: EAD, number of observations/total well numbers

[
  {
    "compound": "N=C(N)c1ccc(OCCCCCOc2ccc(C(=N)N)cc2)cc1",
    "observed measurement": "0/6"
  },
  {
    "compound": "C#Cc1cccc(Nc2ncnc3cc(OCCOC)c(OCCOC)cc23)c1",
    "observed measurement": "0/5"
  },
  {
    "compound": "COc1cccc2c1C(=O)c1c(O)c3c(c(O)c1C2=O)C[C@@](O)(C(=O)CO)C[C@@H]3O[C@H]1C[C@H](N)[C@H](O)[C@H](C)O1",
    "observed measurement": "0/5"
  },
  {
    "compound": "COc1nc(N)nc2c1ncn2[C@@H]1O[C@H](COP(=O)(N[C@@H](C)C(=O)OCC(C)(C)C)Oc2cccc3ccccc23)[C@@H](O)[C@@]1(C)O (stereo partly drawn)",
    "observed measurement": "0/5"
  },
  {
    "compound": "COc1cc2c(Nc3ccc(Br)cc3F)ncnc2cc1OCC1CCN(C)CC1",
    "observed measurement": "0/5"
  },
  {
    "compound": "CC(C)(Sc1cc(C(C)(C)C)c(O)c(C(C)(C)C)c1)Sc1cc(C(C)(C)C)c(O)c(C(C)(C)C)c1",
    "observed measurement": "0/5"
  }
]
